# studySystem: JARID1B (Homo sapiens, UniProt Q9UGL1)
# Construct: The FLAG tagged full length JARID1B enzyme was expressed in Sf21 insect cells using FLAG-JARID1B baculoviruses; FLAG (N); made in house; host or cells: Sf21 insect cells (baculovirus)
# Sequence (Q9UGL1 whole entry): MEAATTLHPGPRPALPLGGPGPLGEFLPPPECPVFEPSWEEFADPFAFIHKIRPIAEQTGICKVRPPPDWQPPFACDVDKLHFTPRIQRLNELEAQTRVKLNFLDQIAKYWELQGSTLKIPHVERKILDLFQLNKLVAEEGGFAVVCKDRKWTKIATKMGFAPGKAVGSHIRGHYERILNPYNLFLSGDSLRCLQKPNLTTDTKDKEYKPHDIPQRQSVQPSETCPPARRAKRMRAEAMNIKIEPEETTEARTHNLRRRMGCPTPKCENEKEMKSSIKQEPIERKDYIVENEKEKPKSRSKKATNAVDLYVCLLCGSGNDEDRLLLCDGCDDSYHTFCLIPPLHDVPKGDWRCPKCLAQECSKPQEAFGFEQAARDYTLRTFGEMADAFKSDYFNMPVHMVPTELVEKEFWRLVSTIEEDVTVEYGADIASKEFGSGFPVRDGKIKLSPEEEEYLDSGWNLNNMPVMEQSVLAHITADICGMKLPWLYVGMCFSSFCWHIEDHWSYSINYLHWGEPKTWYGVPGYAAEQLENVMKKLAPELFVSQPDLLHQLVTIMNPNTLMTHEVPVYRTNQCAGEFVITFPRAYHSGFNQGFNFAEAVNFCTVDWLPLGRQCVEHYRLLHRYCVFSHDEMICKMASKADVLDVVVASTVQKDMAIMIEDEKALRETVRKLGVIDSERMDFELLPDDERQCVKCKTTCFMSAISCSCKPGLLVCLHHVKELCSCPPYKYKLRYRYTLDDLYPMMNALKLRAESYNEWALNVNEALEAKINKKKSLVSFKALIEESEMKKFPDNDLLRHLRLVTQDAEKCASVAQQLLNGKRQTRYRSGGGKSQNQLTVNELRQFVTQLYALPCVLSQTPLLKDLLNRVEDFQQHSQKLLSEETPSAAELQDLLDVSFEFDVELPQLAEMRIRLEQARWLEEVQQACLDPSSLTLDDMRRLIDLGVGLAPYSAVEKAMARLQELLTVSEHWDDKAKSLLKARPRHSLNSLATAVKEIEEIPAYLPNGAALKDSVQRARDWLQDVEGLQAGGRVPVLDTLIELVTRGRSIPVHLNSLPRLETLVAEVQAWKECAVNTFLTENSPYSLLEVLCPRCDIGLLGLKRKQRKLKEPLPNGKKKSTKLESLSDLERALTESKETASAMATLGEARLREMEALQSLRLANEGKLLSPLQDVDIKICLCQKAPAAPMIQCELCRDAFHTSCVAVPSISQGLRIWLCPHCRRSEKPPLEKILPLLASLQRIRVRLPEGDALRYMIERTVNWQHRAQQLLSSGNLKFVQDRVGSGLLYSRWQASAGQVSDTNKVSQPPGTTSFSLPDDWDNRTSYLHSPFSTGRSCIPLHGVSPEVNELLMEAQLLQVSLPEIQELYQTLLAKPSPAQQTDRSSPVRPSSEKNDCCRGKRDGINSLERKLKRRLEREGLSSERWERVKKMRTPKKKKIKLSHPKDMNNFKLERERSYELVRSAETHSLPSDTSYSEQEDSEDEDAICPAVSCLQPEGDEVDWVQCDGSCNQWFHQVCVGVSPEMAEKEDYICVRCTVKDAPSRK
# assayInfo: FLAG-JARID1B histone demethylase assay with AlphaScreen detection (HTS and dose response);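 note: FLAG-tagged JARID1B at 4 nM acting on a biotinylated H3K4me3 peptide, demethylation read by AlphaScreen luminescence, with hits checked against bio-H3K4me2 without enzyme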;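 note: compound tested at 20 µM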
# Type: biochemical
# testSettings: validation of HTS actives; effect of compound in JARID1B AlphaScreen assay
assayReadout: Assay Signal (percent) (%)
Please respond with the number in % and leave the unit unwritten.

>>> valuereported("Cc1ccc(C(=O)Nc2cnc(N3CCN(c4ccccc4Cl)CC3)c(C(=O)O)c2)cc1")
10.32

Data request: What value of Assay Signal (percent) has been recorded for this entry: c1ccc(-c2nn3c(Cn4cnc5ccccc54)nnc3s2)cc1
Data returned: 14.67

Data request: What value of Assay Signal (percent) has been recorded for this entry: C#CCCCCCCCCCCCC(O)CC(O)COC(C)=O (stereo not drawn) [YU155369, AVOCADYNE ACETATE, reference compound]
Data returned: 44.82

Data request: What value of Assay Signal (percent) has been recorded for this entry: Cc1cc(C)nc(Nc2ccc(N(C)C)cc2)n1
Data returned: 12.15

Data request: What value of Assay Signal (percent) has been recorded for this entry: CCSc1nnc(-c2cc(OC)cc(OC)c2)o1
Data returned: 9.43

Data request: What value of Assay Signal (percent) has been recorded for this entry: CCOC(=O)C(CCOc1cccc(CC)c1)C(=O)OCC
Data returned: 6.13

Data request: What value of Assay Signal (percent) has been recorded for this entry: Cc1ccc(C(=O)Nc2nnc(-c3ccncc3)s2)o1
Data returned: 16.16

Data request: What value of Assay Signal (percent) has been recorded for this entry: Cc1ccsc1CNn1cnnc1S
Data returned: 48.50

Data request: What value of Assay Signal (percent) has been recorded for this entry: O=C1c2ccccc2C(=O)c2c(NCCc3ccc(O)cc3)ccc(NCCc3ccc(O)cc3)c21 [YU019467, BML-266, reference compound]
Data returned: 76.09

Data request: What value of Assay Signal (percent) has been recorded for this entry: Cc1c(C(=O)O)cccc1-c1ccc(C=C[N+](=O)[O-])o1 (single isomer, unassigned)
Data returned: 31.41

Data request: What value of Assay Signal (percent) has been recorded for this entry: Cc1[nH]c2nc(C(F)(F)F)nn2c(=O)c1C
Data returned: 38.73

Data request: What value of Assay Signal (percent) has been recorded for this entry: CNC[C@H](O)c1ccc(O)c(O)c1 [YU033809, ADRENALINE BITARTRATE, reference compound]
Data returned: 40.90

Data request: What value of Assay Signal (percent) has been recorded for this entry: COc1cccc2c1C(=O)c1c(O)c3c(c(O)c1C2=O)C[C@@](O)(C(C)=O)C[C@@H]3O[C@H]1C[C@H](N)[C@H](O)[C@H](C)O1 [YU155488, DAUNORUBICIN, reference compound]
Data returned: 48.63

Data request: What value of Assay Signal (percent) has been recorded for this entry: NC(=O)NO [YU033863, HYDROXYUREA, reference compound]
Data returned: 13.20

Data request: What value of Assay Signal (percent) has been recorded for this entry: N#CC(C#N)=Cc1cc(O)c(O)c(O)c1 [YU154832, TYRPHOSTIN 25, reference compound]
Data returned: 23.08

Data request: What value of Assay Signal (percent) has been recorded for this entry: N#CC(=Cc1ccc(-c2ccccc2)o1)C(N)=S
Data returned: 15.42

Data request: What value of Assay Signal (percent) has been recorded for this entry: O=c1c(O)c(-c2ccc(O)c(O)c2)oc2cc(O)ccc12 [YU155255, FISETIN, reference compound]
Data returned: 91.26

Data request: What value of Assay Signal (percent) has been recorded for this entry: COCCCNCCOc1cc(C(C)C)ccc1C
Data returned: 13.31
